Recorded values, source ChEMBL document CHEMBL1201862.

Test system: HOP-62
Assay: NCI tumour cell line growth inhibition, 48 h
Calls of active or inactive are those of the source. Cut-off read from the data, not from the text of the source: active = GI50 up to about 1.1 µM and inactive = higher.
Please reply with one of these outcomes: label 1 (active), label 0 (inactive)

Below, 3 compounds whose answers are already recorded.
[
  {
    "Compound": "Cc1cc2nc(-c3cc(C(C)(C)C)c(O)c(C(C)(C)C)c3)[nH]c2cc1C",
    "Assigned Label": "label 0"
  },
  {
    "Compound": "CC1=C2C(=O)c3ccccc3C2=C(C)S(=O)(=O)O1",
    "Assigned Label": "label 0"
  },
  {
    "Compound": "Cc1cc(S(=O)(=O)Nc2nc3ccccc3c(=O)n2N)c(S)cc1Cl",
    "Assigned Label": "label 0"
  }
]

Look up the recorded call for O=C(CC(=O)Nc1ccccc1)NNC(Sc1ccccc1)c1cc(/N=N/c2ccc(Br)cc2)ccc1O (configuration not stated) in this test. label 0

Look up the recorded call for c1ccc(/C(=N/Nc2ccncn2)c2ccccn2)cc1 in this test. label 0

Look up the recorded call for CCOC(=O)C(NC(=O)c1ccccc1)(N1CCN(c2cc3c(cc2F)c(=O)c(C(=O)O)cn3CC)CC1)C(F)(F)F (configuration not stated) in this test. label 0

Look up the recorded call for CC1OC(OC2C(OC(=O)[C@@H]3CC(C)(C)C[C@@H]4C5=CC[C@@H]6[C@@]7(C)C[C@H](O)[C@H](OC8OC(CO)C(O)C(O)C8O)[C@@](C)(CO)C7[C@H](O)C[C@@]6(C)[C@]5(C)C[C@@H](O)[C@H]43)OCC(O)C2O)C(O)C(O)C1O (some centres not stated) in this test. label 0

Look up the recorded call for COc1ccc(CCc2cc(OC)c(O)c(OC)c2)cc1 in this test. label 0

----------
Known GI50 of a selection of compounds
Tested on: NCI-H460
Test: NCI tumour cell line growth inhibition, 48 h
Activity calls are given as the source filed them. Rule as the data show it: active = GI50 up to about 1.1 µM and inactive = higher.

# count of solved cases: 3
[
  {
    "Compound": "Cc1nc2sc3ccccc3n2c(=O)c1/N=N/c1ccc(Cl)cc1",
    "Experimental Target": "NCI-H460",
    "GI50": "> 100 µM (inactive)"
  },
  {
    "Compound": "Cc1ccc(NC(=O)c2nc(S)nc(N)c2-c2ccccc2C)cc1C",
    "Experimental Target": "NCI-H460",
    "GI50": "> 100 µM (inactive)"
  },
  {
    "Compound": "CCOc1ccc(Nc2nc(N)nc(N)c2N)cc1",
    "Experimental Target": "NCI-H460",
    "GI50": "29.1 µM (inactive)"
  }
]

// Input: Cc1ccc(/C=C2\CCCC(CN(C)C)C2=O)cc1 (configuration not stated) . Output its GI50 only. 3.48 µM (inactive)

// Input: Cl/C(=N\c1cccc2ccccc12)N(c1ccccc1)c1ccccc1 . Output its GI50 only. 28.4 µM (inactive)

// Input: CCCC(=O)N(C(=O)CCC)C1=C(Cl)C(=O)c2ccccc2C1=O . Output its GI50 only. 5.22 µM (inactive)

// Input: O=C1c2ccccc2C(=O)c2c(NCCCNCCO)ccc(NCCCNCCO)c21 . Output its GI50 only. 3.8 µM (inactive)

----------
System: HCC 2998
Experiment: NCI tumour cell line growth inhibition, 48 h
Calls of active or inactive are those of the source. Cut-off read from the data, not from the text of the source: active = GI50 up to about 1.1 µM and inactive = higher.
Please reply with one of these outcomes: 1 (active), 0 (inactive)

Below, 5 molecules whose answers are already recorded.
[
  {
    "Molecule": "O=C(NNC(=O)c1ccncc1)C(=O)Nc1cc(Cl)c(Cl)cc1Cl",
    "Assigned Label": 0
  },
  {
    "Molecule": "CCOC(=O)C(NC(=O)CC(C)C)(N1CCN(c2cc3c(cc2F)c(=O)c(C(=O)O)cn3C2CC2)CC1)C(F)(F)F (stereo unspecified)",
    "Assigned Label": 0
  },
  {
    "Molecule": "OCCC1(O)CCC(O)CC1 (stereo unspecified)",
    "Assigned Label": 0
  },
  {
    "Molecule": "CC(C)OC(=O)c1ccc(NCC2=CC(=O)C=CC2=O)cc1",
    "Assigned Label": 0
  },
  {
    "Molecule": "O=C1CC(=O)NC(NN2C(=O)CSC2c2ccc(Cl)cc2)=N1 (stereo unspecified)",
    "Assigned Label": 0
  }
]

Would you kindly look at the next entry?
Look up the recorded call for CC(=O)O[C@H]1C(=O)[C@@]2(C)C(C(OC(=O)c3ccccc3)[C@]3(O)CC(OC(=O)[C@H](OC(=O)CCC(=O)O)C(NC(=O)c4ccccc4)c4ccccc4)C(C)=C1C3(C)C)C1(OC(C)=O)COC1C[C@@H]2O (stereo partly specified) in this test. 1

----------
Tested on: DU-145
Test: NCI tumour cell line growth inhibition, 48 h
The source made the active and inactive calls. Cut-off read from the data, not from the text of the source: active = GI50 up to about 1.1 µM and inactive = higher.
Please reply with one of these outcomes: active, inactive

[
  {
    "Compound": "Cn1c2ccccc2n2c3ncccc3c(=O)cc12",
    "Assigned Label": "inactive"
  },
  {
    "Compound": "Cn1c(=O)c2c([nH]/c(=N/N=C/c3ccccc3C(=O)O)n2C)n(C)c1=O",
    "Assigned Label": "inactive"
  },
  {
    "Compound": "CCOc1ccc(Nc2nc(N)nc(N)c2N)cc1",
    "Assigned Label": "inactive"
  }
]

Look up the recorded call for Cn1c2n/c(=N\c3ccc(Cl)cc3)[n+]3ccc4ccccc4c3c-2c([O-])n1-c1ccccc1 in this test. inactive

Look up the recorded call for CN1CCN(CN2C(=O)C3C4C=CC(C3C2=O)C2C(=O)N(CN3CCN(C)CC3)C(=O)C42)CC1 (stereo not given) in this test. inactive

Look up the recorded call for Cc1cccc2c(NCCN(C)C)c3cccc(C(=O)NCCN(C)C)c3nc12 in this test. active

----------
Tested on: CCRF-CEM
Test: NCI tumour cell line growth inhibition, 48 h
Active and inactive are the calls of the source. Cut-off read from the data, not from the text of the source: active = GI50 up to about 1.1 µM and inactive = higher.
Property Label: GI50

[
  {
    "Input Smiles": "CNC(=O)c1nn[nH]c1O",
    "GI50": "> 100 µM (inactive)"
  },
  {
    "Input Smiles": "Nc1ccc(-c2nc3ccccc3s2)cc1C#Cc1ccccc1",
    "GI50": "29.2 µM (inactive)"
  },
  {
    "Input Smiles": "CC(C)(CN1CCCCC1)C(/C=C/c1ccccc1)=N\\NC(=O)N/N=C(/C=C/c1ccccc1)C(C)(C)CN1CCCCC1",
    "GI50": "1.19 µM (inactive)"
  },
  {
    "Input Smiles": "O=C1C2=Cc3ccccc3CCN2c2ccccc21",
    "GI50": "13.6 µM (inactive)"
  },
  {
    "Input Smiles": "COc1ccc2cc(NC(=O)N/N=C\\c3ccc(Cl)cc3)ccc2c1",
    "GI50": "> 100 µM (inactive)"
  }
]

Next, consider the following compound.
// Input: Cn1c(=O)c2c([nH]/c(=N/N=C/c3ccccc3C(=O)O)n2C)n(C)c1=O . Output its GI50 only. > 100 µM (inactive)

----------
Known GI50 of a selection of compounds
Test system: HOP-62
Assay: NCI tumour cell line growth inhibition, 48 h
Active and inactive are the calls of the source. Cut-off read from the data, not from the text of the source: active = GI50 up to about 1.1 µM and inactive = higher.

// Input: OCCN(CCO)c1cccc(N(CCO)CCO)c1 . Output its GI50 only. > 100 µM (inactive)

----------
Known GI50 of a selection of compounds
Tested on: MDA-MB-231
Test: NCI tumour cell line growth inhibition, 48 h
Activity calls are given as the source filed them. No stated cut-off is given here; in the data, active = GI50 up to about 1.1 µM and inactive = higher.

[
  {
    "Compound": "CCOP(=O)(OCC)c1cc(-c2ccccc2)ccc1N",
    "Result": "> 100 µM (inactive)"
  }
]

// Input: COC(=O)C1Cc2c(OC)ccc(OC)c2CC(C(=O)OC)C1=O (centres undefined) . Output its GI50 only. > 100 µM (inactive)

// Input: CC(=O)O[C@H]1CC[C@@]2(C)C(=CC[C@@H]3[C@@H]2CC[C@]2(C)C(=O)/C(=C\c4ccccc4)C[C@@H]32)C1 . Output its GI50 only. > 100 µM (inactive)

// Input: COC1OC(Cn2cc([N+](=O)[O-])nc2C)C(O)C(O)C1O (centres undefined) . Output its GI50 only. > 100 µM (inactive)

// Input: CSC1C(=O)Nc2ccc3ccccc3c21 (centres undefined) . Output its GI50 only. 23.2 µM (inactive)

// Input: O=c1c2ccccc2nc2[nH][nH]c(=S)n12 . Output its GI50 only. > 100 µM (inactive)

// Input: O=C(NC(Nc1ccc(F)c(Cl)c1)(C(F)(F)F)C(F)(F)F)OCc1ccccc1 . Output its GI50 only. 11.7 µM (inactive)

// Input: CN(/N=C(\C(=O)O)c1ccccc1)C1=NCCN1 . Output its GI50 only. > 100 µM (inactive)

// Input: Cc1oc2c(c1C)S(=O)(=O)C(C#N)=CN2 . Output its GI50 only. > 100 µM (inactive)

// Input: C/C=C(/CBr)CCC(Br)C(C)(C)Cl.C/C=C(\CBr)CCC(Br)C(C)(C)Cl (centres undefined) . Output its GI50 only. > 10 µM (inactive)

// Input: O=C1CCCC2=C(N1)C(=O)C=CC2=O . Output its GI50 only. 16.7 µM (inactive)

// Input: O=C(O)[C@H]1NC[C@@H]2ON=C(Br)[C@@H]21 . Output its GI50 only. > 100 µM (inactive)

// Input: CCOC(=O)C(NC(=O)c1ccccc1)(N1CCN(c2cc3c(cc2F)c(=O)c(C(=O)O)cn3CC)CC1)C(F)(F)F (centres undefined) . Output its GI50 only. 23.6 µM (inactive)

// Input: Cc1ccc(/C=C2\CCCC(CN(C)C)C2=O)cc1 (centres undefined) . Output its GI50 only. 1.66 µM (inactive)

// Input: Cc1cc2[nH]c3c(C#N)c(-c4ccccc4)c(CN4CCOCC4)c(=O)n3c2cc1C . Output its GI50 only. > 100 µM (inactive)

// Input: Cc1nc2sc3ccccc3n2c(=O)c1/N=N/c1ccc(Cl)cc1 . Output its GI50 only. 83.9 µM (inactive)

// Input: COC(=O)C1CCC(=O)N1C(c1ccccc1)c1ccc(OC)c(OC)c1 (centres undefined) . Output its GI50 only. > 100 µM (inactive)

// Input: O=C(CC1(O)CCCCC1)OC1CCCC1 . Output its GI50 only. > 100 µM (inactive)

// Input: O=c1c(=O)c2cscc2c1=O . Output its GI50 only. 5.14 µM (inactive)
